Experimental protocol: In vitro metabolism rate determination, human liver microsome (HLM) assay
Format: in vitro ADME
Condition description: human, liver microsomes, read-out: HLM: Clint, app
Assay readout: microsomal CLint at 1 μM (µL/min/mg)

Known microsomal CLint at 1 μM results, listed for orientation:
# get_value(readout='microsomal CLint at 1 μM', item= "CC(=O)N1CCN(C(=O)[C@@H]2CN(c3ccc(=O)n(C)n3)C[C@H]2c2ccc(F)cc2F)CCC[C@H]1c1ccc(Cl)cc1" ) 14.8

# get_value(readout='microsomal CLint at 1 μM', item= "COC(=O)N1CCN(C(=O)[C@@H]2CN(c3ccc(C#N)nn3)C[C@H]2c2ccc(F)cc2F)CCC[C@H]1c1ccc(Cl)cc1" ) 9.75

# get_value(readout='microsomal CLint at 1 μM', item= "COc1ccc([C@@H]2CN(c3ccc(=O)n(C)n3)C[C@H]2C(=O)N2CCC[C@@H](c3ccc(Cl)cc3)N(C(=O)C(C)C)CC2)c(F)c1" ) 21.8

[1] COC(=O)N1CCN(C(=O)[C@@H]2CN(c3ccc(=O)n(C)n3)C[C@H]2c2ccc(Cl)cn2)CCC[C@H]1c1ccc(Cl)cc1
[2] CC(=O)N1CCN(C(=O)[C@@H]2CN(c3cccnn3)C[C@H]2c2ccc(F)cc2F)CCCC1c1ccccc1 (mixture of isomers)
Kindly identify which of 1 and 2 has the larger recorded microsomal CLint at 1 μM value. Use the label to indicate which entry you chose. 2
(2: 102 µL/min/mg, 1: 20.6 µL/min/mg)

[I] CS(=O)(=O)N1CCN(C(=O)[C@@H]2CN(c3ccc(C#N)nn3)C[C@H]2c2ccc(Cl)cn2)CCC[C@H]1c1ccc(Cl)cc1
[II] CC(C)(C)N1C[C@@H](C(=O)N2CCC(c3ccc(Cl)cc3)N(S(C)(=O)=O)CC2)[C@H](c2ccc(F)cc2F)C1 (mixture of isomers)
Kindly identify which of I and II has the larger recorded microsomal CLint at 1 μM value. Use the label to indicate which entry you chose. II

----------
Study system: UniProt P32245
Experimental protocol: MC4 EC50 functional potency (protocol E of US2005/0176772 / WO 2005/077935)
Method: The compounds of formula (I) of the present invention have utility as MCR4 agonists in the treatment of various disease states. MC5 and MC4 EC50 activity was determined as described by assay protocols D and E, respectively, in US2005/0176772 (pages 28-30).
pEC50: −log10 of the molar value.
Assay readout: pEC50

What measured pEC50 is associated with COc1ccc([C@@H]2CN(c3ccc(=O)[nH]n3)C[C@H]2C(=O)N2CCCC(c3ccc(Cl)cc3)N(S(C)(=O)=O)CC2)c(F)c1 (mixture of isomers) [Example 111] on UniProt P32245? 7.83

[I] CC(C)(C)N1C[C@@H](C(=O)N2CCC[C@@H](c3ccc(Cl)cc3)N(C(=O)C3CCCC3)CC2)[C@H](c2ccc(F)cc2F)C1
[II] N#Cc1ccc(N2C[C@@H](C(=O)N3CCC[C@@H](c4ccc(Cl)cc4)N(C(=O)CC(F)(F)F)CC3)[C@H](c3ccc(F)cc3F)C2)nn1
[III] CC(C)C(=O)N1CCN(C(=O)[C@@H]2CN(c3ccc(=O)n(C)n3)C[C@H]2c2ccc(F)cc2F)CCC[C@H]1c1ccc(Cl)cc1
[IV] COc1cccc(C2CCCN(C(=O)[C@@H]3CN(c4ccc(C#N)nn4)C[C@H]3c3ccc(F)cc3F)CCN2C(C)=O)c1 (mixture of isomers)
Sort the 4 compounds by pEC50; largest first, smallest last. Write the labels out in the order the request specifies. III, II, I, IV
(III: 8.46, II: 7.66, I: 7.36, IV: 6.84)

[P] CC(C)(C)N1C[C@@H](C(=O)N2CCC[C@@H](c3ccc(Cl)cc3)N(C(=O)CC3CC3)CC2)[C@H](c2ccc(F)cc2F)C1
[Q] COC(=O)N1CCN(C(=O)[C@@H]2CN(C(C)(C)C)C[C@H]2c2ccc(OC)cc2F)CCC[C@H]1c1ccc(Cl)cc1
Lab log: flag the item ( P or Q ) with the smaller pEC50 figure. Use the label to indicate which entry you chose. Q

----------
Read-out record for MC3 receptor (MC3R) (Homo sapiens, UniProt P41968): Ki
Assay readout: Ki (µM)

Known Ki results, listed for orientation:
# get_value(readout='Ki', item= CC(=O)N1CCN(C(=O)[C@@H]2CN(C(C)(C)C)C[C@H]2c2ccc(F)cc2F)CCC[C@H]1c1ccc(Cl)cc1 [Example 8] ) 11.5

# get_value(readout='Ki', item= CC(=O)N1CCN(C(=O)[C@@H]2CN(c3ccc(C#N)nn3)C[C@H]2c2ccc(F)cc2F)CCCC1c1ccccc1F (mixture of isomers) [Example 2] ) 0.375

[I] COc1ccc([C@@H]2CN(c3ccc(=O)[nH]n3)C[C@H]2C(=O)N2CCCC(c3ccc(Cl)cc3)N(S(C)(=O)=O)CC2)c(F)c1 (single isomer, unassigned) [Example 114]
[II] CC(C)CC(=O)N1CCN(C(=O)[C@@H]2CN(C(C)(C)C)C[C@H]2c2ccc(F)cc2F)CCC[C@H]1c1ccc(Cl)cc1 [Example 16]
Kindly identify which of I and II has the larger recorded Ki value. Use the label to indicate which entry you chose. II

[P] CC(C)(C)N1C[C@@H](C(=O)N2CCC[C@@H](c3ccc(Cl)cc3)N(C(=O)CC(F)(F)F)CC2)[C@H](c2ccc(F)cc2F)C1 [Example 12]
[Q] Cn1nc(N2C[C@@H](C(=O)N3CCCC(c4ccc(Cl)cc4)N(S(C)(=O)=O)CC3)[C@H](c3ccc(F)cc3F)C2)ccc1=O (mixture of isomers) [Example 81]
Lab log: flag the item ( P or Q ) with the smaller Ki figure. Use the label to indicate which entry you chose. Q

----------
Study system: CYP3A4 (Homo sapiens, UniProt P08684)
Construct: utilizes human liver microsomes together with isoform-specific clinical drug probes; from tissue; host or cells: human liver microsomes
Sequence (P08684 whole entry, canonical isoform): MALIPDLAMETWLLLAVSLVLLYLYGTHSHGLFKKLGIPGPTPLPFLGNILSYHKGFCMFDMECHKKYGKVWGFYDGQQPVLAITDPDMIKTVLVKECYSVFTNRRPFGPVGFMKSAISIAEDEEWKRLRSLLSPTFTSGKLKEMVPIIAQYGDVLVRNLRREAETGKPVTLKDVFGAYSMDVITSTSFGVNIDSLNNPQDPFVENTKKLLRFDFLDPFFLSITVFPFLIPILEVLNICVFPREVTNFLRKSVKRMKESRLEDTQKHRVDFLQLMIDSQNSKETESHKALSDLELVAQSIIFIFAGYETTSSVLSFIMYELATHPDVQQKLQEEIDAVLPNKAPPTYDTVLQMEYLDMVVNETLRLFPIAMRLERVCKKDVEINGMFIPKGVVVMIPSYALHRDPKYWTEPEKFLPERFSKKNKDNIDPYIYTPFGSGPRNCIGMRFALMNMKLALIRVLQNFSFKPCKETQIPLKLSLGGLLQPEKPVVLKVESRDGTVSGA
Experimental protocol: High density DDI 3 μM cocktail screen in human liver microsomes, midazolam probe
Assay type: in vitro ADME
Condition description: human, liver microsomes, probe midazolam, read-out: % inhibition 3A4 @ 3 μM
Assay readout: inhibition at 3 µM (%)

# get_value(readout='inhibition at 3 µM', item= CC(C)(C)N1C[C@@H](C(=O)N2CCC[C@@H](c3ccc(Cl)cc3)N(C(=O)C3CCOCC3)CC2)[C@H](c2ccc(F)cc2F)C1 [Example 59] ) 38.4

[1] COc1ccc([C@@H]2CN(C(C)(C)C)C[C@H]2C(=O)N2CCC[C@@H](c3ccc(Cl)cc3)N(C(=O)C3CC(F)(F)C3)CC2)c(F)c1 [Example 62]
[2] COC(=O)N1CCN(C(=O)[C@@H]2CN(C(C)(C)C)C[C@H]2c2ccc(OC)cc2F)CCC[C@H]1c1ccc(Cl)cc1 [Example 71]
Kindly identify which of 1 and 2 has the larger recorded inhibition at 3 µM value. Use the label to indicate which entry you chose. 2

----------
Study system: MC4 receptor (Homo sapiens, UniProt P32245)
Sequence (P32245 whole entry): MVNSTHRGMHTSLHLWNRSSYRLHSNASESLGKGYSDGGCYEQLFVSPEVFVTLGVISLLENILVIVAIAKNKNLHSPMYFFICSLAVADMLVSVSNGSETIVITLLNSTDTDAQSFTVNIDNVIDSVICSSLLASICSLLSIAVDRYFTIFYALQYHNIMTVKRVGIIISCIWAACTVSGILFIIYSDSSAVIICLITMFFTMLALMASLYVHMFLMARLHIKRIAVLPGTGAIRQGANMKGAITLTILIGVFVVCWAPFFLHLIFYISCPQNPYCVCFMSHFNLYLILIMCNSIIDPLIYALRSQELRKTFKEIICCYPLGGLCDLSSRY
Experimental protocol: MC4 EC50 functional potency (protocol E of US2005/0176772 / WO 2005/077935)
Assay readout: EC50 (nM)

[A] COc1ccc([C@@H]2CN(c3ccc(=O)[nH]n3)C[C@H]2C(=O)N2CCCC(c3ccc(Cl)cc3)N(S(C)(=O)=O)CC2)c(F)c1 (single isomer, unassigned) [Example 113]
[B] COc1ccc([C@@H]2CN(c3ccc(C#N)nn3)C[C@H]2C(=O)N2CCC[C@@H](c3ccc(Cl)cc3)N(C(=O)C3CC3)CC2)c(F)c1 [Example 23]
[C] CS(=O)(=O)N1CCN(C(=O)[C@@H]2CN(c3ccc(C#N)cn3)C[C@H]2c2ccc(F)cc2F)CCCC1c1ccccc1 (single isomer, unassigned) [Example 40]
Which order do the items above take when sorted by EC50 from high to low? Write the labels out in the order the request specifies. C, A, B

----------
Study system: CYP3A4 (Homo sapiens)
Construct: utilizes human liver microsomes together with isoform-specific clinical drug probes; from tissue; host or cells: human liver microsomes
Experimental protocol: High density DDI 3 μM cocktail screen in human liver microsomes, midazolam probe
Type: in vitro ADME
Condition description: human, liver microsomes, probe midazolam, read-out: % inhibition 3A4 @ 3 μM
Method: High Density Drug-Drug Interactions (DDI) 3 μM Cocktail Screen […] The substrate cocktail approach for P450 DDI utilizes human liver microsomes together with isoform-specific clinical drug probes and permits the simultaneous measurement of the inhibition of P450 1A2, 2C9, 2D6 & 3A4 activities in a single incubation. […] This method has been thoroughly tested and evaluated using standard compounds. […]
Assay readout: inhibition at 3 µM (%)

[A] COC(=O)N1CCN(C(=O)[C@@H]2CN(C(C)(C)C)C[C@H]2c2ccc(F)cc2F)CCCC1c1ccc(Cl)cc1 (mixture of isomers)
[B] CS(=O)(=O)N1CCN(C(=O)[C@@H]2CN(c3ccc(=O)[nH]n3)C[C@H]2c2ccc(F)cc2F)CCCC1c1ccc(Cl)cc1 (mixture of isomers)
Lab log: flag the item ( A or B ) with the smaller inhibition at 3 µM figure. Use the label to indicate which entry you chose. A
(A: 29%, B: 51%)
